- experimental target: NCX1.7 (Homo sapiens, UniProt P32418)
- method summary: excised inside-out patch-clamp, recombinant forward-mode
- Assay type: biochemical
- test conditions: read-out: IC50, FM late current NCX1.7; late current, 1 min postactivation
measured property: pIC50
// field semantics: pIC50 = negative decimal log of concentration (mol/L)

Value of pIC50 reported for the compound N=C(N)SCCc1ccc(OCc2ccc([N+](=O)[O-])cc2)cc1 is 5.76

* * *

- experimental target: UniProt:P32418
- method summary: excised inside-out patch-clamp, recombinant forward-mode
- Assay type: biochemical
- test conditions: read-out: IC50, FM peak current NCX1.3; peak current
measured property: IC50
Just the number plus its unit, please.

Kindly note the recorded IC50 for N=C(N)SCCc1ccc(OCc2ccc([N+](=O)[O-])cc2)cc1 , which is 5.59 µM
